target: HLA-A*2402 (human); experiment: iTopia off-rate
Measured t1/2 by item

Binder	t1/2
VFAEKITSL [cdr2 176-184 VFAEKITSL]	0.78
VKQRGISLL [cdr2 338-346 VKQRGISLL]	1.15
VYDHVFAEK [cdr2 172-180 VYDHVFAEK]	1.65
TLLDRNTEL [cdr2 37-45 TLLDRNTEL]	1.39
KQRGISLLH [cdr2 339-347 KQRGISLLH]	1.52
VEKLVPDSL [cdr2 271-279 VEKLVPDSL]	1.02
IFSCIKKTK [cdr2 429-437 IFSCIKKTK]	1.16
AVKQRGISL [cdr2 337-345 AVKQRGISL]	1.6
EYKALFKEI [cdr2 421-429 EYKALFKEI]	1.63
KILSLTETI [cdr2 111-119 KILSLTETI]	0.82
ALKVKYEEL [cdr2 355-363 ALKVKYEEL]	0.38
EYLTKQVEL [cdr2 64-72 EYLTKQVEL]	1.72
AYRARALEL [cdr2 242-250 AYRARALEL]	1.11
MYTTNQEQL [cdr2 52-60 MYTTNQEQL]	1.46
LFKEIFSCI [cdr2 425-433 LFKEIFSCI]	1.11
TPPEYKALF [cdr2 418-426 TPPEYKALF]	0.46
